# studyTarget: T1, tail-chimeric peptide IhfA3-IhfB2NTHI (nontypeable Haemophilus influenzae …)
# T1 construct: also called IHF(NTHI) tail chimeric peptide; IHFNTHI tail chimeric peptide
# T1 peptide: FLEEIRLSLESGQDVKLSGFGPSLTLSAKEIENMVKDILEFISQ
# protocolDescription: SPR Biacore 3000, peptide immobilized, HuMab as analyte
propertyLabel: Kd (nM)
API: value field is a number in nM; no unit string.

humanized anti-tail monoclonal antibody, heavy chain SEQ ID NO: 5 and light chain SEQ ID NO: 10 (antibody, V domains shown, also called H10214 (11E7.C7 Humanized HC2) + L10213 (11E7.C7 Humanized LC1)) VH: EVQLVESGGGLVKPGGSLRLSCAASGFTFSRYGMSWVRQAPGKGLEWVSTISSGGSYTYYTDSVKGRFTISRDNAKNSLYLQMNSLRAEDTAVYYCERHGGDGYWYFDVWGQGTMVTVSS VL: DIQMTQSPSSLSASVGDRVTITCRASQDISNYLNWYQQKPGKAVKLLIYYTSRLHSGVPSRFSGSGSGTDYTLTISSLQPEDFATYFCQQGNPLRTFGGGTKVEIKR : 6.1
humanized anti-tail monoclonal antibody, heavy chain SEQ ID NO: 6 and light chain SEQ ID NO: 10 (antibody, V domains shown, also called H10215 (11E7.C7 Humanized HC3) + L10213 (11E7.C7 Humanized LC1)) VH: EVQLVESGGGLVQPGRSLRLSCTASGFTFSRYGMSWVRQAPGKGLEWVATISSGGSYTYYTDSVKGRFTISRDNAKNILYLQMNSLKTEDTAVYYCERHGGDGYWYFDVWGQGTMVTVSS VL: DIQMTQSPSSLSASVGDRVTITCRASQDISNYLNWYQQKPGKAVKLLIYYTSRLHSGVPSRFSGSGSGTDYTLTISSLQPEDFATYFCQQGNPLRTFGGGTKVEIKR : 2.5
humanized anti-tail monoclonal antibody, heavy chain SEQ ID NO: 6 and light chain SEQ ID NO: 11 (antibody, V domains shown, also called H10215 (11E7.C7 Humanized HC3) + L10214 (11E7.C7 Humanized LC2)) VH: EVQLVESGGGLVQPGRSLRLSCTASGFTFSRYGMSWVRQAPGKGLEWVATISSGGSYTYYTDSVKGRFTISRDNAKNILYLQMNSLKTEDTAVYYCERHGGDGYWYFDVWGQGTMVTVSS VL: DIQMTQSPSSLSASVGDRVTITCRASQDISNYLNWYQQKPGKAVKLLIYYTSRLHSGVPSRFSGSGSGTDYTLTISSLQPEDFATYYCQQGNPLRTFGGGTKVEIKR : 1

Okay, next one:
Data point: humanized anti-tail monoclonal antibody, heavy chain SEQ ID NO: 4 and light chain SEQ ID NO: 11 (antibody, V domains shown, also called H10213 (11E7.C7 Humanized HC1) + L10214 (11E7.C7 Humanized LC2)) VH: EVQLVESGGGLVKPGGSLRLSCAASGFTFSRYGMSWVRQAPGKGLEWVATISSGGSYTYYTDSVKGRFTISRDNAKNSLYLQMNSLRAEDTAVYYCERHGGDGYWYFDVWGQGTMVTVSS VL: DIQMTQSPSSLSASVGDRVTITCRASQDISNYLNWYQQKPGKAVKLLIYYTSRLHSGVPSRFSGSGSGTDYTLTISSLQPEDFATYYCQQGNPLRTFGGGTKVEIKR ; Kd = 4.9
